Values from PubChem BioAssay AID179

Recorded IC50, one value per entry.
# Tested on: CEM cells HIV-1 protection, formazan growth assay
# MEASUREMENT_DESCRIPTION: NCI AIDS Antiviral Assay
# CONDITION_DETAILS: measured here: growth of uninfected CEM cells

[
  {
    "COMPOUND": "COc1ccc(/C=N/N=C(\\N)NO)c(OC)c1OC",
    "IC50": "> 200 µM"
  },
  {
    "COMPOUND": "C=CCC(C(=O)OCC)C1NCCc2c1[nH]c1ccccc21 (configuration not stated)",
    "IC50": "> 45.7 µM"
  },
  {
    "COMPOUND": "CS(=O)(=O)O/N=c1/cc(-c2ccccc2)oc2ccccc12",
    "IC50": "> 200 µM"
  },
  {
    "COMPOUND": "O=C1CCN2C(=O)CCN12",
    "IC50": "> 1780 µM"
  },
  {
    "COMPOUND": "Cc1cc(S(=O)(=O)O)c(NC(=O)C(=O)C2C=CCS2(=O)=O)cc1Cl (configuration not stated)",
    "IC50": "> 631 µM"
  },
  {
    "COMPOUND": "CSc1nc(C#N)c(N)n1C",
    "IC50": "> 200 µM"
  },
  {
    "COMPOUND": "C=CCC12CC(COc3ccccc3C(N)=O)OC1=Nc1ccccc1NC2=O (configuration not stated)",
    "IC50": "> 200 µM"
  },
  {
    "COMPOUND": "C[C@H](NC(=O)c1ccccc1SC(=O)CCCC[n+]1ccccc1)C(N)=O",
    "IC50": "> 100 µM"
  },
  {
    "COMPOUND": "O=C(NN=C1CCCCC1)NN=C1CCCCC1",
    "IC50": "> 100 µM"
  },
  {
    "COMPOUND": "CCOC(=O)C1(N=O)CCCCC1=O (configuration not stated)",
    "IC50": "> 200 µM"
  },
  {
    "COMPOUND": "CN1CC2(CCCCC2)C(O)C12C=CCCC2 (configuration not stated)",
    "IC50": "> 380 µM"
  },
  {
    "COMPOUND": "COC(=O)C(C(=O)C(=O)Nc1ccc([N+](=O)[O-])cc1)c1nc2ccc([N+](=O)[O-])cc2[nH]c1=O (configuration not stated)",
    "IC50": "> 57.5 µM"
  }
]
